Decide using melting point alone. Strictly below 200 °C: 1. Equal to or above 200 °C: 0.

Threshold test, melting point < 200 °C: COc1ccc(C2=NC[C@@H](OC(=O)Nc3ccccc3)[C@H](c3ccccc3)O2)cc1 (racemic)
1

Threshold test, melting point < 200 °C: Cn1c(Sc2ccc(C(=O)O)c(Cl)c2)n[nH]c1=O
0

Threshold test, melting point < 200 °C: COC(=O)c1ccc(F)cc1OC(=S)N(C)C
1

Threshold test, melting point < 200 °C: Cc1cc(C)cc(N(CCCC(N)=O)Cc2ccc3nc(NCCCN4CCOCC4)n(Cc4cccc5cccnc45)c3c2)c1
1

Threshold test, melting point < 200 °C: CCCCCCCCCCCCCCCC1CN(C(=O)c2cc(OC)c(OC)c(OC)c2)CCN1C(=O)c1cc(OC)c(OC)c(OC)c1 (stereo not given)
1

###

Please provide measured melting point for the entries that follow.

// returns reported melting point for input COc1cc2nc(N3CCN(C(=O)C4CCCCC4)CC3)nc(N)c2cc1OC
223 to 225 °C

// returns reported melting point for input O=C(CS)N[C@@H](CS)C(=O)O
121 °C

// returns reported melting point for input CC(=O)OC1CC2(C)C(Sc3ccccc3)=CCC2C2CCC3=CC(=O)C=CC3(C)C12F (stereo not given)
229 to 231 °C

// returns reported melting point for input CCS(=O)(=O)CCC(=O)NNC(=O)N1Cc2ccccc2Oc2ccc(Cl)cc21
181 to 184 °C

// returns reported melting point for input CC1(C)NC(=O)c2ccc(O)cc21
231 to 233 °C

###

Please provide measured melting point for the entries that follow.

// returns reported melting point for input CCOc1cc(C(=CC#N)c2ccc(OC)c(C)c2)ccc1OC
86 to 88 °C

// returns reported melting point for input COC(=O)c1ccc(C2=NOC(c3cc(Cl)cc(C(F)(F)F)c3)(C(F)(F)F)C2)c2ccccc12 (centres undefined)
112 °C

// returns reported melting point for input Cn1ccc2cc(-c3ccc(S(=O)(=O)n4ccc(/C=C/C(=O)NO)c4)cc3)ccc21
177 to 179 °C

// returns reported melting point for input O=C(O)CCc1oc(-n2ncc3ccccc32)nc1-c1ccc(Cl)cc1
204 to 205 °C

// returns reported melting point for input COC(=O)c1ccc2cc(-c3cccc(OC)c3)oc2c1
150 to 152 °C

// returns reported melting point for input O=C(O)COc1c(-c2cccc(C(F)(F)F)c2)cc(C(=O)NCCCCCCOCc2ccc(OCc3ccccc3)cc2)cc1-c1cccc(C(F)(F)F)c1
127 to 130 °C

// returns reported melting point for input CC1=C(C)C(=O)C(NCc2ccccc2)=CC1=O
101 to 102 °C

// returns reported melting point for input CN(c1cccc2cc(-c3nccs3)[nH]c12)S(=O)(=O)c1ccsc1C(=O)N1CCOCC1
190 °C

// returns reported melting point for input COC1=NC(=O)N(C)S(=O)(=O)N1
195 to 199 °C

###

Please provide measured melting point for the entries that follow.

// returns reported melting point for input CO/C=C(/C(=O)OC)c1ccccc1COc1cccc(Br)n1
64 to 65 °C

// returns reported melting point for input CC1CCCN1CCCOc1ccc2c(c1)CCC1CC(=O)NN=C21 (stereo unspecified)
193 to 195 °C

// returns reported melting point for input COc1nnc(Cl)c2c1CCCC2
117 to 119 °C

// returns reported melting point for input COc1ccc(CSc2ccc([N+](=O)[O-])cc2C(=O)O)cc1
200 to 204 °C

// returns reported melting point for input O=C1COc2cc(CN3CCN(c4ccccc4)CC3)ccc2N1
191 to 193 °C

// returns reported melting point for input CNCCCOc1ccc(-c2nnc(CSCCOc3ccccc3)o2)cc1
40 to 44 °C

Numbers sourced from a melting point compilation (Tetko et al.; mined from patent text by program, amines drawn as free bases though some values may be those of a salt).
